# study.target: Cellular tumor antigen p53 (Homo sapiens)
# protocol.details: ATG_p53_CIS: Attagene CIS-FACTORIAL HepG2 Assay for human p53 Transcription Factor (AID 2282994)
# details: HepG2 p53 cis-element reporter, Attagene mRNA; actives raise or lower the signal
Activity calls are given as the source filed them. The calls were made as follows: active = hit-call score of the fitted dose curve at least 0.9, where 1 is the maximum; inactive = score below 0.9.
Please answer using one outcome listed in 1 = active, -1 = inactive

CCCCCCCCCCCCCC[N+](C)(C)C | -1
CC(O)CO (configuration not stated) | -1
CCCCOCCO | -1
Oc1cccc(O)c1 | -1

Tell me the assay call for COc1ccc([N+](=O)[O-])cc1N please. -1

Tell me the assay call for COc1cc(CCC(=O)CC(=O)CCc2ccc(O)c(OC)c2)ccc1O please. 1

Tell me the assay call for Cc1oc(-c2ccccc2)nc1CCOc1ccc(C[C@H](Nc2ccccc2C(=O)c2ccccc2)C(=O)O)cc1 please. -1

---

# Read-out: Thrombomodulin, THBD (gene 7056)
# protocol.details: BSK_CASM3C_Thrombomodulin: BioMAP Diversity Plus: CASM3C Assay for Thrombomodulin Biomarker Activity (AID 2283051);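 also: thrombomodulin protein level measured by ELISA 24 h after dosing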
# details: primary human coronary artery smooth muscle cells; actives raise or lower the signal
Calls of active or inactive are those of the source. Rule for the calls: active = hit-call score of the fitted dose curve at least 0.9, where 1 is the maximum; inactive = score below 0.9.
recorded.endpoint: AC50

The examples below pair each entry with its known result.
CC(C)(C)c1ccc(O)c(C(C)(C)C)c1 | 35.9 µM (active)
CC(=O)NC1(c2cccc(F)c2)CCN(CC[C@@]2(c3ccc(Cl)c(Cl)c3)CN(c3ccccc3)C(=O)CO2)CC1 | 26.1 µM (active)
COCC(C)OCC(C)O (stereo not drawn) | inactive
Cc1cc(C)c(O)c(C)c1 | inactive

Each molecule below has a reported value. Please supply its AC50.
1. CCCCCCCCCCCCCC[N+](C)(C)C
2. O=[N+]([O-])c1ccc(O)cc1
3. CC[C@H](C)[C@@H](C(=O)O)n1sc2ccccc2c1=O
4. CC(O)CO (stereo not drawn)
5. OCCC(F)(F)C(F)(F)C(F)(F)C(F)(F)C(F)(F)C(F)(F)C(F)(F)C(F)(F)F
6. CN1CCC[C@H]1c1cccnc1
7. CCCCCCCCC(=O)O
8. CC(C)(C)CC(C)(C)c1ccc(O)c(-n2nc3ccccc3n2)c1

1. 5.06 µM (active)
2. inactive
3. inactive
4. inactive
5. inactive
6. inactive
7. inactive
8. 22.7 µM (active)

Look up AC50: Nc1cccc2c(N)cccc12 inactive

---

# Read-out: Macrophage colony-stimulating factor (MCSF), CSF1 (gene 1435)
# protocol.details: BSK_hDFCGF_MCSF: BioMAP Diversity Plus: hDFCGF Assay for Macrophage colony-stimulating factor (MCSF) Biomarker Activity (AID 2283060)
# details: primary human foreskin fibroblasts; actives raise or lower the signal
Active and inactive are the calls of the source. How the source made its calls: active means hit-call score of the fitted dose curve at least 0.9, where 1 is the maximum; inactive means score below 0.9.
Please answer using one outcome listed in 1 (yes) = active, 0 (no) = inactive

// known answers, use as guide
CCCCCCCCC(=O)O | 0 (no)
c1ccc2c(c1)Cc1ccccc1-2 | 0 (no)
Oc1cc2ccccc2c2ccccc12 | 1 (yes)
CC(C)(C)c1ccc(O)c(C(C)(C)C)c1 | 1 (yes)

Tell me the assay call for CC(=O)CC(C)(C)O please. 0 (no)

Tell me the assay call for NCC(F)(F)C(F)(F)C(F)(F)C(F)(F)C(F)(F)C(F)(F)C(F)(F)F please. 0 (no)

Tell me the assay call for C#C[C@]1(O)CC[C@H]2[C@@H]3CCC4=CC(=O)CC[C@@H]4[C@H]3CC[C@@]21C please. 0 (no)
